# Test system: Male Sprague-Dawley Rats
# EXPERIMENT SUMMARY: In vivo Complete Freund's Adjuvant (CFA) efficacy assay
# Set-up: species or system rat; key: (+) indicates the test compound was determined to be efficacious at 3 mpk, oral dosing; (−) indicates the test compound was determined to not be efficacious at 3 mpk, oral dosing
# PARTICULARS: 10 mpk, intraperitoneal dosing; inhibition of allodynia vs vehicle, p<0.05
Marks after values point to notes of the source that are not given here.
OBSERVED PROPERTY: CFA Efficacy

>>> result("O=C(Nc1cccnn1)N1CCC2(CC1)CC(c1cccc(Oc3ccc(Br)cn3)c1)C2")
"(−)^c"
>>> result("O=C(Nc1cccnn1)N1CCC2(CC1)CC(c1cccc(Oc3ccc(C(F)(F)F)cn3)c1)C2")
"(−)^c"
>>> result("O=C(Nc1cccnn1)N1CCC2(CC1)CC(c1cccc(Oc3ncc(Br)cn3)c1)C2")
"(+)^c"
>>> result("COc1cccc(C2CC3(CCN(C(=O)Nc4onc(C)c4C)CC3)C2)c1")
"(+)^c"

###

In this section, each of the compounds is paired with its reported log10 of kinact/KI.
# ASSAYED SYSTEM: human FAAH (Homo sapiens)
# Construct: made in house; host or cells: E. coli
# Sequence (O00519 whole entry): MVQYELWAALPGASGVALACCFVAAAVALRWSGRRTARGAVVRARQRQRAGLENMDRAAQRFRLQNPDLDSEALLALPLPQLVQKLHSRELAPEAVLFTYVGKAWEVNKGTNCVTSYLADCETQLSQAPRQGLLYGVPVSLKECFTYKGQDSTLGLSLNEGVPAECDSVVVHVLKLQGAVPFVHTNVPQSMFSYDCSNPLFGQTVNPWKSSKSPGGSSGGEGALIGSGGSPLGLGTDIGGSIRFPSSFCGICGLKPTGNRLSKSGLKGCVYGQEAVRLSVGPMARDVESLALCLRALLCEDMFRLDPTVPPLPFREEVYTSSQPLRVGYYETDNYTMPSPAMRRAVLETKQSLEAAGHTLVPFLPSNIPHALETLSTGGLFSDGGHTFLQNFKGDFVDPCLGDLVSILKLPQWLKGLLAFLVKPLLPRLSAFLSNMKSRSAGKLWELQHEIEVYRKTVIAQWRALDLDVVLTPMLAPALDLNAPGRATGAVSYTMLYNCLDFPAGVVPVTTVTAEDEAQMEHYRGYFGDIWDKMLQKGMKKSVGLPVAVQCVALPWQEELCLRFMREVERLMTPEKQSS
# EXPERIMENT SUMMARY: FAAH assay, human FAAH enzyme inhibition (kinact/Ki)
# Assay type: biochemical
# PARTICULARS: oleamide substrate 50 μM, 30° C., read-out: hFAAH kinact/Ki
OBSERVED PROPERTY: log10 of kinact/KI (log10 of the value in M⁻¹ s⁻¹)

>>> numeric_value("Cn1nnnc1NC(=O)N1CCC2(CC1)CC(c1cccc(OC(F)(F)F)c1)C2 [Example 45]")
4.12
>>> numeric_value("Cc1noc(NC(=O)N2CCC3(CC2)CC(c2ccc(OCc4ccc(F)cc4)cc2)C3)c1C [Example 40]")
3.48
>>> numeric_value("Cc1noc(NC(=O)N2CCC3(CC2)CC(c2cccc(Cl)c2F)C3)c1C [Example 29]")
3.58
>>> numeric_value("Cc1noc(NC(=O)N2CCC3(CC2)CC(c2csc(-c4cccc(F)c4)n2)C3)c1C [Example 37]")
3.28
>>> numeric_value("Cc1noc(NC(=O)N2CCC3(CC2)CC(c2cccc(OCCOc4ccc(Cl)cc4)c2)C3)c1C [Example 25]")
3.46
>>> numeric_value("COc1cccc(C2CC3(CCN(C(=O)Nc4onc(C)c4C)CC3)C2)c1 [Example 5]")
3.34
>>> numeric_value("Cn1nnnc1NC(=O)N1CCC2(CC1)CC(c1cccc3c1OC(F)(F)O3)C2 [Example 55]")
4.01
>>> numeric_value("Cn1nnnc1NC(=O)N1CCC2(CC1)CC(c1cccc(Oc3ccc(C(F)(F)F)cn3)c1)C2 [Example 54]")
4.34
>>> numeric_value("Cc1noc(NC(=O)N2CCC3(CC2)CC(F)(c2cccc(Cl)c2)C3)c1C [Example 32]")
3.45
>>> numeric_value("O=C(Nc1cccnn1)N1CCC2(CC1)CC(c1cccc(Oc3ncc(Br)cn3)c1)C2 [Example 9]")
3.39
>>> numeric_value("O=C(Nc1cccnn1)N1CCC2(CC1)CC(c1cccc(Oc3ccc(Br)cn3)c1)C2 [Example 10]")
3.31
>>> numeric_value("CCc1noc(NC(=O)N2CCC3(CC2)CC(c2cccc(OC(F)(F)F)c2)C3)c1C [Example 34]")
3.22
>>> numeric_value("O=C(Nc1nnc(-c2cccc(Cl)c2)o1)N1CCC2(CC1)CC(c1cccc(OC(F)(F)F)c1)C2 [Example 51]")
3.40
>>> numeric_value("Cc1nnc(NC(=O)N2CCC3(CC2)CC(c2cccc(OC(F)(F)F)c2)C3)o1 [Example 35]")
3.18
>>> numeric_value("Cc1noc(NC(=O)N2CCC3(CC2)CC(c2csc(-c4cccc(C(F)(F)F)c4)n2)C3)c1C [Example 36]")
3.31
>>> numeric_value("Cc1noc(NC(=O)N2CCC3(CC2)CC(c2cccc(OCCOc4ccccc4)c2)C3)c1C [Example 26]")
3.65
>>> numeric_value("Cc1noc(NC(=O)N2CCC3(CC2)CC(c2ccc(Cl)c(F)c2)C3)c1C [Example 39]")
3.43
>>> numeric_value("Cn1nnnc1NC(=O)N1CCC2(CC1)CC(c1ccc(F)c(Cl)c1)C2 [Example 48]")
4.21
>>> numeric_value("Cn1nnnc1NC(=O)N1CCC2(CC1)CC(c1cccc(F)c1F)C2 [Example 56]")
4.01
>>> numeric_value("Cc1cccc(C2CC3(CCN(C(=O)Nc4nnnn4C)CC3)C2)c1 [Example 16]")
3.98
>>> numeric_value("Cc1noc(NC(=O)N2CCC3(CC2)CC(c2cccc(C(F)(F)F)c2F)C3)c1C [Example 30]")
3.51
>>> numeric_value("O=C(Nc1cccnn1)N1CCC2(CC1)CC(c1cccc(Oc3ccc(C(F)(F)F)cn3)c1)C2 [Example 1]")
3.20
>>> numeric_value("Cc1noc(NC(=O)N2CCC3(CC(c4ccc(F)c(Cl)c4)C3)C(C)C2)c1C (stereo not shown) [Example 42]")
3.00
>>> numeric_value("Cc1cccc(C2CC3(CCN(C(=O)Nc4onc(C)c4C)CC3)C2)c1 [Example 7]")
3.46
>>> numeric_value("Cc1noc(NC(=O)N2CCC3(CC2)CC(c2cccc(F)c2F)C3)c1C [Example 19]")
3.37
>>> numeric_value("Cc1noc(NC(=O)N2CCC3(CC2)CC(c2cc(Cl)ccc2F)C3)c1C [Example 21]")
3.43
>>> numeric_value("Cc1noc(NC(=O)N2CCC3(CC2)CC(O)(c2ccc(F)c(Cl)c2)C3)c1C [Example 44]")
2.98
>>> numeric_value("Cc1noc(NC(=O)N2CCC3(CC2)CC(c2cccc(Cl)c2)C3)c1C [Example 13]")
3.60
>>> numeric_value("Cc1noc(NC(=O)N2CCC3(CC2)CC(c2ccc(F)c(Cl)c2)C3C)c1C (stereo not shown) [Example 41]")
2.55
>>> numeric_value("CCc1cccc(C2CC3(CCN(C(=O)Nc4onc(C)c4C)CC3)C2)c1 [Example 22]")
3.75
>>> numeric_value("Cc1cccc(C2CC3(CCN(C(=O)Nc4nnc(-c5ccccc5)nn4)CC3)C2)c1 [Example 17]")
3.39
>>> numeric_value("Cn1nnnc1NC(=O)N1CCC2(CC1)CC(c1noc(-c3ccc(C(F)(F)F)cc3)n1)C2 [Example 49]")
3.72
>>> numeric_value("Cc1noc(NC(=O)N2CCC3(CC2)CC(c2ccc(F)c(Cl)c2)C3)c1C [Example 14]")
3.62
>>> numeric_value("Cc1noc(NC(=O)N2CCC3(CC2)CC(c2nc(-c4ccc(OC(F)(F)F)cc4)cs2)C3)c1C [Example 38]")
3.57

Where do these numbers come from? They come from patent US20100113465A1.
